Tested on: Mus musculus
protocol-notes: Inhibition of mouse 11beta-HSD1 mediated [3H]cortisone to [3H]cortisol conversion at 10 mg/kg, po after 4 hrs
inhibition in vivo at 10 mg/kg by entry:

# mol, inhibition in vivo at 10 mg/kg
measured = [
    ("Cn1c(-c2ccc(F)cc2Cl)nnc1-c1ccccc1C(F)(F)F", "70%"),
    ("Cn1c(-c2ccccc2)nnc1C12CC3CC(CC(C3)C1)C2", "47%"),
    ("CCS(=O)(=O)CCCc1ccc(-c2nnc(-c3ccccc3C(F)(F)F)n2C)c(C)c1", "76%"),
    ("COc1c(-c2nnc(-c3ccccc3C(F)(F)F)n2C)ccc2ccc(Cl)cc12", "70%"),
    ("Cn1c(-c2ccccc2Cl)nnc1-c1ccccc1C(F)(F)F", "70%"),
    ("CCCCCc1ccc(-c2nnc(-c3ccccc3C(F)(F)F)n2C)cc1", "53%"),
    ("Cn1c(-c2ccc(Cl)cc2Cl)nnc1-c1ccc(Cl)cc1Cl", "65%"),
    ("Cn1c(-c2ccccc2)nnc1-c1ccccc1C(F)(F)F", "11%"),
    ("CCCCc1ccc(-c2nnc(-c3ccccc3)n2C)cc1", "25%"),
    ("CCCCc1ccc(-c2nnc(-c3ccccc3C(F)(F)F)n2C)c(C)c1", "76%"),
    ("CCCCCc1ccc(-c2nnc(-c3ccccc3)n2C)cc1", "9%"),
]
